Taken from the supplement of paper PMC11061612.

- Tested on: MES-SA (Other Solid Carcinomas)
- test-name: combination Emax (second highest fraction inhibited in the dose matrix, 72 h); higher = more inhibition; extreme values may be limits of the assay
# Lookup of reported combination Emax keyed by entry

Check out these entries, answers already filled in.
1. CC1(C)CCC(CN2CCN(c3ccc(C(=O)NS(=O)(=O)c4ccc(NCC5CCOCC5)c([N+](=O)[O-])c4)c(Oc4cnc5[nH]ccc5c4)c3)CC2)=C(c2ccc(Cl)cc2)C1 [Venetoclax] + CCN(CCO)CCCOc1ccc2c(Nc3cc(CC(=O)Nc4cccc(F)c4)[nH]n3)ncnc2c1 [AZD2811] (first compound max 1 µM, 7x7, partner max 1 µM): 0.408
2. C[C@@H](c1ccc2nccn2c1)n1nnc2ncc(-c3cnn(C)c3)nc21 [Savolitinib] + CC1(C)CCC(CN2CCN(c3ccc(C(=O)NS(=O)(=O)c4ccc(NCC5CCOCC5)c([N+](=O)[O-])c4)c(Oc4cnc5[nH]ccc5c4)c3)CC2)=C(c2ccc(Cl)cc2)C1 [Venetoclax] (first compound max 1 µM, 7x7, partner max 1 µM): 0.0576
3. CC1(C)CCC(CN2CCN(c3ccc(C(=O)NS(=O)(=O)c4ccc(NCC5CCOCC5)c([N+](=O)[O-])c4)c(Oc4cnc5[nH]ccc5c4)c3)CC2)=C(c2ccc(Cl)cc2)C1 [Venetoclax] + Cn1cnc2c(F)c(Nc3ccc(Br)cc3Cl)c(C(=O)NOCCO)cc21 [Selumetinib] (first compound max 1 µM, 7x7, partner max 3 µM): 0.138
4. Cn1cnc2c(F)c(Nc3ccc(Br)cc3Cl)c(C(=O)NOCCO)cc21 [Selumetinib] + CC(C)n1c(=O)n(C)c2cnc3cc(F)c(-c4ccc(OCCCN5CCCCC5)nc4)cc3c21 [AZD1390] (first compound max 10 µM, 7x7, partner max 0.3 µM): 0.115

Moving on to another compound below.
Exercise: Look up and report measured combination Emax (MES-SA (Other Solid Carcinomas)) for the following compound: C[C@@H](c1ccc2nccn2c1)n1nnc2ncc(-c3cnn(C)c3)nc21 [Savolitinib] + CN(CC[C@H](CSC1=CC=CC=C1)NC2=C(C=C(C=C2)S(=O)(=O)NC(=O)C3=CC=C(C=C3)N4CCC(CC4)[C@H](C5=CC=CC=C5C6=CC=C(C=C6)Cl)O)S(=O)(=O)C(F)(F)F)CCO [AZD4320] (first compound max 1 µM, 7x7, partner max 1 µM)
Solution: 0.152

----------
- System: KG-1 (Acute Myeloid Leukemia);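 further: after 72 h of two-drug dosing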
- test-name: Bliss excess, mean over the matrix (fraction); higher = more synergy
experimental-readout: Bliss excess
Provide a numeric answer; units are not to be included.

Check out these entries, answers already filled in.
1) Cc1cc2ncnn2cc1Nc1ncc2c(n1)n(C1CCOCC1)c(=O)n2C [AZD7648] + CN(C)CCCOc1ccc(-c2ccc3ncc4c(c3c2)n(C2CCOCC2)c(=O)n4C)cn1 [AZD0156] (first compound max 10 µM, 7x7, partner max 1 µM): -0.0155
2) COc1nnc2ccc(N3CCC(c4ccc(OCCN5CCN(C)C(=O)[C@H]5C)cc4)CC3)nn12 [AZD5153] + C=CCn1c(=O)c2cnc(Nc3ccc(N4CCN(C)CC4)cc3)nc2n1-c1cccc(C(C)(C)O)n1 [AZD1775] (first compound max 1 µM, partner max 1 µM): 0.004
3) COc1cccc(OCCCN)c1-c1cc(Nc2cnc(C#N)cn2)n[nH]1 [Prexasertib] + CCc1c2c(nc3ccc(O)cc13)-c1cc3c(c(=O)n1C2)COC(=O)[C@]3(O)CC [SN-38] (first compound max 1 µM, 7x7, partner max 0.3 µM): -0.0454

Exercise: Retrieve Bliss excess measured for CN(CCO)CC[C@H](CSc1ccccc1)Nc1ccc(S(=O)(=O)NC(=O)c2ccc(N3CCC([C@@H](O)c4ccccc4-c4ccc(Cl)cc4)CC3)cc2)cc1S(=O)(=O)C(F)(F)F [AZD4320] + Cc1cc2ncnn2cc1Nc1ncc2c(n1)n(C1CCOCC1)c(=O)n2C [AZD7648] (first compound max 1 µM, 7x7, partner max 10 µM) and print it.
Solution: 0.0526

Exercise: Retrieve Bliss excess measured for Cc1c2c(nn1C)CSCc1cc(n(C)n1)CSc1cc(c3ccccc3c1)OCCCc1c(C(=O)O)n(C)c3c-2c(Cl)ccc13 [AZD5991] + C=CCn1c(=O)c2cnc(Nc3ccc(N4CCN(C)CC4)cc3)nc2n1-c1cccc(C(C)(C)O)n1 [AZD1775] (first compound max 1 µM, partner max 1 µM) and print it.
Solution: 0.0391

Exercise: Retrieve Bliss excess measured for CN(CCO)CC[C@H](CSc1ccccc1)Nc1ccc(S(=O)(=O)NC(=O)c2ccc(N3CCC([C@@H](O)c4ccccc4-c4ccc(Cl)cc4)CC3)cc2)cc1S(=O)(=O)C(F)(F)F [AZD4320] + C[C@@H]1COCCN1C2=NC(=NC(=C2)C3(CC3)[S@](=N)(=O)C)C4=C5C=CNC5=NC=C4 [AZD6738] (first compound max 1 µM, 7x7, partner max 10 µM) and print it.
Solution: 0.0279

Exercise: Retrieve Bliss excess measured for COc1cc2c(cc1OCCCCCOc1cc3c(cc1OC)C(=O)N1C=C(C)C[C@H]1C=N3)N=C[C@@H]1CC(C)=CN1C2=O [SG3199] + O=C(c1cc(Cc2n[nH]c(=O)c3ccccc23)ccc1F)N1CCN(C(=O)C2CC2)CC1 [Olaparib] (first compound max 0.001 µM, 7x7, partner max 10 µM) and print it.
Solution: 0.0015

Exercise: Retrieve Bliss excess measured for CC(=O)c1c(C)c2cnc(Nc3ccc(N4CCNCC4)cn3)nc2n(C2CCCC2)c1=O [Palbociclib] + Cc1c2c(nn1C)CSCc1cc(n(C)n1)CSc1cc(c3ccccc3c1)OCCCc1c(C(=O)O)n(C)c3c-2c(Cl)ccc13 [AZD5991] (first compound max 10 µM, 7x7, partner max 1 µM) and print it.
Solution: -0.0169
